system: SEM cells; assay: cell viability relative to DMSO control; higher = less cytotoxic; conditions: RPMI 5 mM glucose + 10% dialyzed FBS; 48 h; 0.0211 µM
measured-parameter: cell viability (%)
Express the result in % but write the number alone.

Please review the entries below; each comes with its answer.
molecule: COc1cccc2c1C(=O)c1c(O)c3c(c(O)c1C2=O)C[C@@](O)(C(=O)CO)C[C@@H]3O[C@H]1C[C@H](N)[C@H](O)[C@H](C)O1
measured-parameter: cell viability
value-reported: 92
--
molecule: CNC(=O)c1ccc(Nc2cc(Nc3ccccc3[S+](=O)([O-])C(C)C)c3cc[nH]c3n2)nc1
measured-parameter: cell viability
value-reported: 94.7
--
molecule: NC(=O)c1ccc(N(C(N)=O)c2c(F)cccc2F)nc1-c1ccc(F)cc1F
measured-parameter: cell viability
value-reported: 94.7
--
molecule: CCCCCNC(=O)N1CCC(CN(Cc2ccc(Cl)cc2)Cc2ccc([N+](=O)[O-])s2)C1 (stereo unspecified)
measured-parameter: cell viability
value-reported: 107
--
molecule: Cc1cccc(Nc2ccncc2[S+](=O)([O-])NC(=O)NC(C)C)c1
measured-parameter: cell viability
value-reported: 94.4

Query block: I have this molecule here, `CN1\C=N/C2=CC=C(NC3=CC(=CC=C3C)NC(=O)C4=CC(=CC=C4)C(C)(C)C#N)C=C2C1=O` , and I need its recorded cell viability.
Result block: 115

Query block: Another molecule: `Nc1ncnc2c1ncn2[C@@H]1O[C@H](CO)C[C@H]1O`
Result block: 99.7

Query block: Another molecule: `NC[C@H]1O[C@H](O[C@@H]2[C@H](O)[C@@H](O[C@H]3O[C@H](CO)[C@@H](O)[C@H](N)[C@H]3O)[C@H](N)C[C@@H]2N)[C@H](O)[C@@H](O)[C@@H]1O`
Result block: 23

Query block: Another molecule: COc1ccc2c(c1)[C@]13CCCCC1C(C2)N(C)CC3 (stereo partly specified)
Result block: 114

Query block: Another molecule: `Nc1ccc([S+](=O)([O-])Nc2ccnn2-c2ccccc2)cc1`
Result block: 86.2

Query block: Another molecule: `CN1CCCN(CC1)C2=CC=C3C(=O)\C(=C/4SC5=C(C=CC=C5)N4C3=N2)C(=O)NCC6=CN=C(C)C=N6`
Result block: 92.7

Query block: Another molecule: CC[C@@H]([C@H](C)O)n1ncn(-c2ccc(N3CCN(c4ccc(OCC5CO[C@@](Cn6cncn6)(c6ccc(F)cc6F)C5)cc4)CC3)cc2)c1=O (stereo partly specified)
Result block: 124

Query block: Another molecule: `C[C@@H]1CCO[C@H]2CN\3/C=C(/C(=O)NCC4=C(F)C=C(F)C=C4)C(=O)\C(=C3C(=O)N12)O`
Result block: 96.3

Query block: Another molecule: `Cc1coc2c1C(=O)C(=O)c1c-2ccc2c1CCCC2(C)C`
Result block: 97.4

Query block: Another molecule: `CN1CC(=O)N2[C@H](c3ccc4c(c3)OCO4)c3[nH]c4ccccc4c3C[C@@H]2C1=O`
Result block: 108

Query block: Another molecule: `O=C(O)C(=O)c1cn(Cc2ccccc2)c2ccc(-c3ccc(OC(F)(F)F)cc3)cc12`
Result block: 99

Query block: Another molecule: C=C[C@H]1CN2CCC1C[C@@H]2C(O)c1ccnc2ccc(OC)cc12 (stereo partly specified)
Result block: 23.6

Query block: Another molecule: `CCCNC(=O)Nc1ccc(Oc2ncnc3cc(OC)c(OC)cc23)cc1Cl`
Result block: 113

Query block: Another molecule: `CN(C)CC(C)(C)CNc1nn2c(-c3ccccc3)nnc2cc1C1CCC1`
Result block: 113

Query block: Another molecule: CCOC(=O)C(C)OC1=CC=CC2=C1\C=C/N(CC(=O)NC3=CC=C4OCCOC4=C3)C2=O (stereo unspecified)
Result block: 89

Query block: Another molecule: `CNc1nc(Nc2cnn([C@H]3CCN(C4COC4)C[C@@H]3F)c2Cl)ncc1C(F)(F)F`
Result block: 116
